- Tested on: HNSC
- PROTOCOL: growth inhibition (% activity, log2 RLU normalised to DMSO / staurosporine); higher = more growth inhibition
- TEST CONDITIONS: 33 µM
Attribute: growth inhibition
State just the number; it will be interpreted in %.

COMPOUND	UNITS LABEL	RECORDED VALUE
O=P(O)(O)C(O)(Cn1ccnc1)P(=O)(O)O	%	1.26

Tell me the measured growth inhibition of "CC(=O)OCC(=O)[C@@]1(O)[C@H](C)C[C@H]2[C@@H]3CCC4=CC(=O)C=C[C@]4(C)[C@@]3(F)[C@@H](O)C[C@@]21C" , please.
2.34

Item under review: CN1CCCCC1CCN1c2ccccc2Sc2ccc([S+](C)[O-])cc21 (configuration not stated) . Reported growth inhibition?
1.22

Please report the recorded growth inhibition for C=Cc1c(C)c2cc3nc(cc4[nH]c(cc5nc(cc1[nH]2)C(C)=C5CCC(=O)O)c(CCC(=O)OC)c4C)C1(C)C3=CC=C(C(=O)OC)C1C(=O)OC (configuration not stated) .
2.35

What measured growth inhibition goes with "O=C(CCCCCCC(=O)Nc1ccccc1)NO" ?
70.6

Recorded growth inhibition of "O=C(O)c1cn(C2CC2)c2cc(N3CCNCC3)c(F)cc2c1=O" , please.
-1.04

I'd like to know its growth inhibition. The compound in question is "CNC(=C[N+](=O)[O-])NCCSCc1ccc(CN(C)C)o1"
9.82

Looking for the measured growth inhibition of "CCN(CC)CCOC(=O)c1ccc(N)cc1" , can you help?
2.07

So what does the record say about growth inhibition for "CCCCOc1cc(C(=O)NCCN(CC)CC)c2ccccc2n1" ?
13.1

growth inhibition for "COC(=O)[C@H](Cc1ccccc1)NC(=O)[C@@H](N)CC(=O)O" ?
-5.7

# query: growth inhibition of entry "Nc1nc(N)c2nc(-c3ccccc3)c(N)nc2n1"
3.87

// returns reported growth inhibition for input "CC[C@H](C)[C@H](N)C1=N[C@H](C(=O)N[C@@H](CC(C)C)C(=O)N[C@H](CCC(=O)O)C(=O)N[C@H](C(=O)N[C@H]2CCCCNC(=O)[C@H](CC(N)=O)NC(=O)[C@@H](CC(=O)O)NC(=O)[C@H](Cc3cnc[nH]3)NC(=O)[C@@H](Cc3ccccc3)NC(=O)[C@H]([C@@H](C)CC)NC(=O)[C@@H](CCCN)NC2=O)[C@@H](C)CC)CS1"
1.3

Which value of growth inhibition has been reported for "C[C@@H]1CN(c2c(F)c(F)c3c(=O)c(C(=O)O)cn(C4CC4)c3c2F)C[C@H](C)N1" in the records?
1.66

May I ask what growth inhibition has been recorded for COC(=O)CCc1ccc(OCC(O)CNC(C)C)cc1 (configuration not stated) ?
-0.617

Data request, read-out growth inhibition, for CC(c1cc2ccccc2s1)N(O)C(N)=O (configuration not stated)
-0.145

Query: growth inhibition; subject: "CC(C)/N=c1\cc2n(-c3ccc(Cl)cc3)c3ccccc3nc-2cc1Nc1ccc(Cl)cc1"
66.1

# query: growth inhibition of entry CC(C(=O)O)c1ccc(-c2ccccc2)c(F)c1 (configuration not stated)
0.919

What value of growth inhibition has been recorded for this entry: "O=c1c(-c2ccc(O)cc2)coc2cc(O)ccc12"
-2.12
